pIC50: −log10 of the molar value.
Compiled from multiple publications: pIC50 readings for BRD2 (Homo sapiens (Human), UniProt P25440).
Measure: pIC50

Solved entries:
>>> df
                                   compound  result_value
0  Cc1nn(C2CNC2)c2c1C(c1ccc(Cl)cc1)N(c1cc(C)c3nnc(C)n3c1)C2=O (centres unmarked)          6.82
1  CCn1nc(C)c2c1C(=O)N(c1cc(C)c(=O)n(C)c1)C2c1ccc(Cl)cc1F (centres unmarked)          7.80
2  Cc1cc2c(n1C)[C@@H](c1ccc(Cl)cc1)N(c1cc(Cl)c(=O)n(C)c1)C2=O          6.87
3  CC(C)n1c(-c2ccn(C)n2)nc2c1C(c1ccc(Cl)cc1)N(c1ccc(=O)n(C)c1)C2=O (centres unmarked)          6.22

P: Cc1cc(N2C(=O)c3ccn(C(=O)N(C)C)c3C2c2ccc(Cl)cc2)cn2c(C)nnc12 (centres unmarked)
Q: Cc1cc(N2C(=O)c3nc(C)n(C(C)C)c3C2c2ccc(Cl)cc2)nn2c(C)nnc12 (racemic)
Would you mind telling me which has the lower recorded pIC50 between P and Q ? // caller expects the label of the chosen entry
P

----------
Compiled from multiple publications: pIC50 readings for BRD2 (Homo sapiens (Human), UniProt P25440).
pIC50: −log10 of the molar value.
Measure: pIC50

Solved entries:
In [3]: df
Out[3]:
                                   compound                                    system  measure  result_value
0  Cn1ccc2c1[C@@H](c1ccc(Cl)cc1)N(c1cc(Cl)c(=O)n(C)c1)C2=O  BRD2 (Homo sapiens (Human), UniProt P25440)    pIC50          6.70
1  Cc1cc(N2C(=O)c3nn(C4CN(C)C4)c(C)c3C2c2ccc(Cl)cc2)cn(C)c1=O (stereo not shown)  BRD2 (Homo sapiens (Human), UniProt P25440)    pIC50          6.80
2  Cc1cc(N2C(=O)c3nc(C4=CCNCC4)n(C(C)C)c3C2c2ccc(Cl)cc2)cn2c(C)nnc12 (stereo not shown)  BRD2 (Homo sapiens (Human), UniProt P25440)    pIC50          7.25
3  COc1cc(N2C(=O)c3nc(C)n(C(C)C)c3C2c2ccc(Cl)cc2)cc2c1nnn2C (stereo not shown)  BRD2 (Homo sapiens (Human), UniProt P25440)    pIC50          6.62
4  Cc1cn(C(=O)N(C)C)c2c1C(=O)N(c1cc(C)c3nnc(C)n3c1)C2c1ccc(Cl)cc1 (stereo not shown)  BRD2 (Homo sapiens (Human), UniProt P25440)    pIC50          7.26
5  Cc1cc(N2C(=O)c3c(C4CC4)nn(-c4ccnn4C)c3C2c2ccc(Cl)cc2)cc2c1nnn2C (stereo not shown)  BRD2 (Homo sapiens (Human), UniProt P25440)    pIC50          7.51
6  CCc1nn(C2CC2)c2c1C(c1ccc(Cl)cc1)N(c1cc(C)c3nnc(C)n3c1)C2=O (stereo not shown)  BRD2 (Homo sapiens (Human), UniProt P25440)    pIC50          7.51
7  COc1cccc(C2c3c(ccn3C)C(=O)N2c2cc(C)c(=O)n(C)c2)c1 (stereo not shown)  BRD2 (Homo sapiens (Human), UniProt P25440)    pIC50          6.13

a: Cc1nnc2c(N)cc(N3C(=O)c4c(C5CC5)nn(C)c4C3c3ccc(Cl)cc3)cn12 (stereo not shown)
b: COc1ncccc1-c1nc2c([nH]1)[C@@H](c1ccc(Cl)cc1)N(c1cc(C)c3nnc(C)n3c1)C2=O
Would you mind telling me which has the lower recorded pIC50 between a and b ? // caller expects the label of the chosen entry
b
(b: 7.02, a: 7.39)

A: COc1ncccc1-c1nc2c([nH]1)C(c1ccc(Cl)cc1)N(c1cc(C)c3nnc(C(F)F)n3c1)C2=O (stereo not shown)
B: Cc1cc(N2C(=O)c3c(c(CO)nn3C3CC3)[C@H]2c2ccc(Cl)cc2)cn2c(C)nnc12
C: Cc1cc(N2C(=O)c3ncn(C(C)C)c3C2c2ccc(Cl)cc2)cc2c1nnn2C (stereo not shown)
Thanks in advance: please rank these 3 entries by pIC50, highest to lowest. Labels, ranked as asked.
B, A, C
